Before we begin, note that these pIC50 values for DGKα (Homo sapiens, UniProt P23743) originate from several publications.
pIC50: −log10 of the molar value.
measuredEndpoint: pIC50

{"columns": ["compound", "measuredEndpoint", "measValue"],
 "data": [
  ["CN(C)C(=O)c1ccc(OC2CCN(c3c(C#N)c(=O)n(C)c4ccccc34)CC2)cc1", "pIC50", 6.38],
  ["Cn1c(=O)c(C#N)c(N2CCC(Oc3ccccc3C#N)CC2)c2ccccc21", "pIC50", 8.05],
  ["CC(C)N(Cc1nnnn1-c1ccc(Cl)c(C#N)n1)C1CCCCC1", "pIC50", 4.34],
  ["CN(Cc1nnnn1-c1ccc(C(F)(F)F)nc1)C1CCCCC1", "pIC50", 5.19],
  ["Cc1cccc(-n2nnnc2CN(C)C2CCCCC2)c1", "pIC50", 4.30]
]}

I: Cn1c(=O)c(C(N)=O)c(N2CCC(Oc3ccc(OC(F)(F)F)cc3)CC2)c2ccc(Cl)cc21
II: C[C@@H]1CN(c2cc(=O)n(C)c3ccc(C#N)nc23)[C@@H](C)CN1C(c1ccccc1)c1ccc(F)cc1 (stereo partly drawn)
Among I and II , whose measured pIC50 is the smaller figure? // output: label of the selected item
II
(II: 6.06, I: 8.72)
